Entries and their fold change permeability
test: modulators of brain endothelial barrier permeability, primary screen, cell-based, FITC-avidin fluorescence, HTS (AID 1963498); details: actives lie on both sides; also: test concentration not given here
Write the number on its own, no unit after it.

# count of solved cases: 2
Can you look up the measured fold change permeability of O=C1CCCN1CC#CCN1CCCC1 for me?
0.8

Can you look up the measured fold change permeability of CCN(CC)c1ncnc2c1ncn2[C@@H]1O[C@H](COP(=O)(O)OP(=O)(O)C(Br)(Br)P(=O)(O)O)[C@@H](O)[C@H]1O for me?
1.1

Proceed to the following item.
Can you look up the measured fold change permeability of CC(Cc1ccc(OCC(=O)O)cc1)NCC(O)c1cccc(Cl)c1 (stereo not drawn) for me?
1

----------
experiment: modulators of brain endothelial barrier permeability, primary screen, cell-based, FITC-avidin fluorescence, HTS (AID 1963498); settings: actives lie on both sides; also: test concentration not given here
Entries and their fold change permeability
Write the number on its own, no unit after it.

# count of solved cases: 5
Can you look up the measured fold change permeability of COc1ccc(C(CN(C)C)C2(O)CCCCC2)cc1 (stereo unspecified) for me?
1

Can you look up the measured fold change permeability of CNCCc1c[nH]c2ccc(O)cc12 for me?
0.8

Can you look up the measured fold change permeability of CC(C(O)c1ccc(O)cc1)N1CCC(Cc2ccccc2)CC1 (stereo unspecified) for me?
1.3

Can you look up the measured fold change permeability of CCCN(CCC)CCc1ccc(O)c(O)c1 for me?
0.8

Can you look up the measured fold change permeability of C[N+]1(C)[C@@H]2CC[C@H]1CC(OC(=O)C(CO)c1ccccc1)C2 (stereo partly specified) for me?
1

Proceed to the following item.
Can you look up the measured fold change permeability of COc1cc2c(c(OC)c1OC)-c1ccc(SC)c(=O)cc1[C@@H](NC(C)=O)CC2 for me?
1.7

----------
assay: modulators of brain endothelial barrier permeability, primary screen, cell-based, FITC-avidin fluorescence, HTS (AID 1963498); settings: actives lie on both sides; also: test concentration not given here
Entries and their fold change permeability
Write the number on its own, no unit after it.

Can you look up the measured fold change permeability of CC1OC1P(=O)(O)O (stereo not drawn) for me?
1.1

Can you look up the measured fold change permeability of Nc1ncnc2c1ncn2[C@@H]1O[C@H](COP(=O)(O)CP(=O)(O)OP(=O)(O)O)[C@H](O)C1O (stereo partly drawn) for me?
0.9

Can you look up the measured fold change permeability of CCCCCCCCCCCCCC(=O)O[C@@H]1[C@@H](C)[C@@]2(O)[C@@H](C=C(CO)C[C@]3(O)C(=O)C(C)=C[C@@H]23)[C@@H]2C(C)(C)[C@]12OC(C)=O for me?
1.1

Can you look up the measured fold change permeability of O=P1(N(CCCl)CCCl)NCCCO1 (stereo not drawn) for me?
1

Can you look up the measured fold change permeability of NC(=O)CN1CCCC1=O for me?
1.2

Can you look up the measured fold change permeability of NC(CP(=O)(O)O)C(=O)O (stereo not drawn) for me?
1

----------
experiment: modulators of brain endothelial barrier permeability, primary screen, cell-based, FITC-avidin fluorescence, HTS (AID 1963498); conditions: actives lie on both sides; also: test concentration not given here
Activity calls are given as the source filed them. Rule as the data show it: active = fold change permeability below about 0.7 or above about 1.3; inactive = in between.
Entries and their fold change permeability

# count of solved cases: 3
Can you look up the measured fold change permeability of COc1cc(C(O)CN)ccc1O (configuration not stated) for me?
0.9 (inactive)

Can you look up the measured fold change permeability of CCCN(CCC)C1CCc2cccc(O)c2C1 (configuration not stated) for me?
1 (inactive)

Can you look up the measured fold change permeability of CC1OC(C[N+](C)(C)C)CC1O (configuration not stated) for me?
0.9 (inactive)

Others:
Can you look up the measured fold change permeability of COc1cc2c3c(c1OC)-c1ccccc1C[C@H]3N(C)CC2 for me?
1.9 (active)

Can you look up the measured fold change permeability of NCC(CC(=O)O)c1ccc(Cl)cc1 (configuration not stated) for me?
1.1 (inactive)

Can you look up the measured fold change permeability of CCCN1CCC[C@H](c2cccc(O)c2)C1 for me?
1 (inactive)

Can you look up the measured fold change permeability of CCCN(CCC)C1Cc2cc(OC)c(OC)cc2C1 for me?
0.8 (inactive)
